Tested on: 994946-033-R-J1-PDC complex spheroid viability;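 further: spheroids exposed to drugs for 7 days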
protocolDetails: Anticancer human tumor 994946-033-R-J1-PDC patient-derived melanoma cell line growth inhibition [POLQ]
assayContext: curve of first compound; second compound 10 µM
pIC50: −log10 of the molar value.
parameterMeasured: pIC50

According to the records, this compound O=C(c1cc(Cc2n[nH]c(=O)c3ccccc23)ccc1F)N1CCN(C(=O)C2CC2)CC1 + COC1C(OC(N)=O)C(O)C(Oc2ccc3c(O)c(NC(=O)c4ccc(O)c(CC=C(C)C)c4)c(=O)oc3c2C)OC1(C)C displays pIC50 of 5.38

According to the records, this compound Cn1ncnc1[C@H]1c2n[nH]c(=O)c3cc(F)cc(c23)N[C@@H]1c1ccc(F)cc1 + Cc1cccc(N(C)C(=O)C2C(O)CCN2c2nc(C)cc(C(F)(F)F)c2C#N)c1 displays pIC50 of < 7.00

According to the records, this compound CCc1cc2c(N3CCc4c(cc(Cn5ccnc5)cc4-c4cn(C)nc4C(F)(F)F)C3=O)cc(C)nc2c(OC)n1 + Nc1ccc(C#CCN(C(=O)Cc2ncc(C(F)(F)F)cc2C(F)(F)F)c2ccc(F)cc2)nn1 displays pIC50 of < 5.00

According to the records, this compound CC(C)n1c(=O)n(C)c2cnc3cc(F)c(-c4ccc(OCCCN5CCCCC5)nc4)cc3c21 + Nc1ccc(C#CCN(C(=O)Cc2ncc(C(F)(F)F)cc2C(F)(F)F)c2ccc(F)cc2)nn1 displays pIC50 of < 5.00

According to the records, this compound C=CC(=O)N1CCN(c2nc(=O)n(-c3c(C)ccnc3C(C)C)c3nc(-c4c(O)cccc4F)c(F)cc23)C(C)C1 (stereo unspecified) + COC1C(OC(N)=O)C(O)C(Oc2ccc3c(O)c(NC(=O)c4ccc(O)c(CC=C(C)C)c4)c(=O)oc3c2C)OC1(C)C displays pIC50 of < 5.00

According to the records, this compound Cn1ncnc1[C@H]1c2n[nH]c(=O)c3cc(F)cc(c23)N[C@@H]1c1ccc(F)cc1 + COC1C(OC(N)=O)C(O)C(Oc2ccc3c(O)c(NC(=O)c4ccc(O)c(CC=C(C)C)c4)c(=O)oc3c2C)OC1(C)C displays pIC50 of < 7.00

According to the records, this compound O=c1[nH]cc(F)c(=O)[nH]1 + Cc1cccc(N(C)C(=O)C2C(O)CCN2c2nc(C)cc(C(F)(F)F)c2C#N)c1 displays pIC50 of 5.00

According to the records, this compound CNCc1ccc(-c2[nH]c3cc(F)cc4c3c2CCNC4=O)cc1 + Nc1ccc(C#CCN(C(=O)Cc2ncc(C(F)(F)F)cc2C(F)(F)F)c2ccc(F)cc2)nn1 displays pIC50 of < 5.00

According to the records, this compound O=c1[nH]cc(F)c(=O)[nH]1 + COC1C(OC(N)=O)C(O)C(Oc2ccc3c(O)c(NC(=O)c4ccc(O)c(CC=C(C)C)c4)c(=O)oc3c2C)OC1(C)C displays pIC50 of < 5.00

According to the records, this compound CC1COCCN1c1cc(C2(S(C)(=N)=O)CC2)nc(-c2ccnc3[nH]ccc23)n1 (stereo unspecified) + COC1C(OC(N)=O)C(O)C(Oc2ccc3c(O)c(NC(=O)c4ccc(O)c(CC=C(C)C)c4)c(=O)oc3c2C)OC1(C)C displays pIC50 of 5.50

According to the records, this compound C#Cc1c(F)ccc2cc(O)cc(-c3ncc4c(N5CC6CCC(C5)N6)nc(OCC56CCCN5CC(F)C6)nc4c3F)c12 (stereo unspecified) + Cc1cccc(N(C)C(=O)C2C(O)CCN2c2nc(C)cc(C(F)(F)F)c2C#N)c1 displays pIC50 of 5.23
